I'd appreciate it if you could supply IC50 at 24 h values for the items below.
- protocol-text: Dark toxicity in human Hep2 cells after 24 hrs by Cell Titre Blue assay
- Format: cell-based
- test-context: HEp-2 cells

Task: Determine its reported IC50 at 24 h: `CC1=C(I)C(C)=[N+]2C1=C(c1cc(C(C)(C)C)cc(C(C)(C)C)c1)c1c(C)c(I)c(C)n1[B-]2(F)F`
Result: > 400 µM

Task: Dear colleague, please send me the reported IC50 at 24 h for `CC1=CC(C)=[N+]2C1=C(c1ccc(-c3cccs3)s1)c1c(C)cc(C)n1[B-]2(F)F` when you can.
Result: > 400 µM

Task: Output IC50 at 24 h of `COC(=O)c1ccc(C2=C3C(C)=C(I)C(C)=[N+]3[B-](F)(F)n3c(C)c(I)c(C)c32)cc1`
Result: > 400 µM

Task: Report IC50 at 24 h for `CC1=CC(C)=[N+]2C1=C(c1ccc(-c3ccc(Br)s3)s1)c1c(C)cc(C)n1[B-]2(F)F`
Result: > 300 µM

Task: Specify measured IC50 at 24 h for `COC(=O)c1ccc(C2=C3C(C)=CC(C)=[N+]3[B-](F)(F)n3c(C)cc(C)c32)cc1` .
Result: > 400 µM

Task: Specify reported IC50 at 24 h for the compound shown: `COc1cc(OC)cc(C2=C3C(C)=C(I)C(C)=[N+]3[B-](F)(F)n3c(C)c(I)c(C)c32)c1`
Result: > 400 µM

###

- protocol-text: Ratio of IC50 for dark toxicity in human Hep2 cells to IC50 for phototoxicity in human Hep2 cells
- Assay type: cell-based
- test-context: HEp-2 cells, read-out: Ratio IC50
recorded-endpoint: selectivity ratio

Task: Using known records, supply selectivity ratio for `COC(=O)c1ccc(C2=C3C(C)=CC(C)=[N+]3[B-](F)(F)n3c(C)cc(C)c32)cc1`
Result: > 4

Task: Read the entry `COc1cc(OC)cc(C2=C3C(C)=C(I)C(C)=[N+]3[B-](F)(F)n3c(C)c(I)c(C)c32)c1` and write its reported selectivity ratio.
Result: > 100

Task: Specify selectivity ratio for `COC(=O)c1ccc(C2=C3C(C)=C(I)C(C)=[N+]3[B-](F)(F)n3c(C)c(I)c(C)c32)cc1` and stop.
Result: > 2

Task: Indicate the recorded selectivity ratio value for this compound: `CC1=CC(C)=[N+]2C1=C(c1cccs1)c1c(C)cc(C)n1[B-]2(F)F`
Result: > 3

Task: Annotate the compound `CC1=CC(C)=[N+]2C1=C(c1ccc(-c3ccc(Br)s3)s1)c1c(C)cc(C)n1[B-]2(F)F` with its measured selectivity ratio.
Result: > 3.5

Task: Please report the measured selectivity ratio for `COc1ccc(C2=C3C(C)=C(I)C(C)=[N+]3[B-](F)(F)n3c(C)c(I)c(C)c32)cc1OC`
Result: > 53

Task: Please give measured selectivity ratio of the following entry: `CC1=CC(C)=[N+]2C1=C(c1ccc(-c3cccs3)s1)c1c(C)cc(C)n1[B-]2(F)F`
Result: > 4

Task: Give recorded selectivity ratio. `CC1=C(I)C(C)=[N+]2C1=C(c1c(F)c(F)c(F)c(F)c1F)c1c(C)c(I)c(C)n1[B-]2(F)F`
Result: > 2

Task: Look up and state reported selectivity ratio for `CC1=C(I)C(C)=[N+]2C1=C(c1cccs1)c1c(C)c(I)c(C)n1[B-]2(F)F`
Result: > 30

Task: Identify selectivity ratio associated with the compound `CC1=C(I)C(C)=[N+]2C1=C(c1ccc(-c3ccc(Br)s3)s1)c1c(C)c(I)c(C)n1[B-]2(F)F`
Result: 2.3

Task: Please list selectivity ratio recorded for the compound `CC1=C(I)C(C)=[N+]2C1=C(c1ccc(-c3cccs3)s1)c1c(C)c(I)c(C)n1[B-]2(F)F`
Result: > 2

Task: Indicate its recorded selectivity ratio; the compound in question is `CC1=C(I)C(C)=[N+]2C1=C(c1ccc(Br)s1)c1c(C)c(I)c(C)n1[B-]2(F)F`
Result: > 2

Task: Answer with the recorded selectivity ratio for the compound listed here: `CC1=C(I)C(C)=[N+]2C1=C(c1cc(C(C)(C)C)cc(C(C)(C)C)c1)c1c(C)c(I)c(C)n1[B-]2(F)F`
Result: > 2

Task: Entry `CC1=C(I)C(C)=[N+]2C1=C(c1ccc(Br)cc1)c1c(C)c(I)c(C)n1[B-]2(F)F` needs its selectivity ratio filled in; supply it.
Result: > 15

Task: Hello, please tell me recorded selectivity ratio for this one: `CC1=C(I)C(C)=[N+]2C1=C(c1ccccc1)c1c(C)c(I)c(C)n1[B-]2(F)F`
Result: > 15
